# ASSAYED SYSTEM: mMC3R (Mus musculus)
# Sequence (P33033 whole entry): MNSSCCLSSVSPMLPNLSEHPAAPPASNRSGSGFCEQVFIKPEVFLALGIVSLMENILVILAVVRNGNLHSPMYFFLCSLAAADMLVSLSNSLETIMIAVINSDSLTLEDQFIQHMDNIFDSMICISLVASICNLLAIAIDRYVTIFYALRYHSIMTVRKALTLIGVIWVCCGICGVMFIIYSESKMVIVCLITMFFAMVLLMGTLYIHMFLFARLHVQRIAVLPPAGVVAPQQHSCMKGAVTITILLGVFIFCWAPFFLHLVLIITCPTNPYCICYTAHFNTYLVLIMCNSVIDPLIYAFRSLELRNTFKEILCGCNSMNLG
# ASSAY TEXT: cell-based
# Assay type: cell-based
Square brackets hold non-standard residues; d marks the D form. Peptide text beside a SMILES is read from it. * marks the point of attachment. 2Nal = N[C@@H](Cc1ccc2ccccc2c1)C(=O)O; Bta = N[C@@H](Cc1csc2ccccc12)C(=O)O; 2Thi = N[C@@H](Cc1cccs1)C(=O)O; Octanoyl = CCCCCCCC(=O)*
QUANTITY NAME: EC50 (µM)

(1) CC(=O)N[C@@H](Cc1cccs1)C(=O)N[C@H](Cc1ccccc1)C(=O)N[C@@H](CCCNC(=N)N)C(=O)N[C@@H](Cc1ccc2ccccc2c1)C(N)=O [Peptide 28, Ac-2Thi-DPhe-Arg-Nal(2’)-NH2] (Ac-[2Thi][dF]R[2Nal]-NH2)
(2) CCCCCCCC(=O)N[C@@H](Cc1c[nH]cn1)C(=O)N[C@H](Cc1ccccc1)C(=O)N[C@@H](CCCNC(=N)N)C(=O)N[C@@H](Cc1csc2ccccc12)C(N)=O [Peptide 3, Octanoyl-His-DPhe-Arg-3Bal-NH2] (Octanoyl-H[dF]R[Bta]-NH2)
*Q* Consider 1 and 2 . Which of these has its EC50 at a higher number? To answer, give the label that identifies your chosen option.
*A* 1
